experiment: Cytotoxicity against primary porcine fetal kidney cells assessed as decrease in cell viability after 48 hrs by MTT assay; assay type: toxicity, cell-based; details: pig (Sus scrofa)
MEASUREMENT_LABEL: IC50 at 48 h
The number alone won't do; follow it with the unit.

INPUT: Field request: IC50 at 48 h | item: `COc1cccc2c1C=[N+](c1ccccc1I)CC2.[Br-]`
OUTPUT: 2.41 µM

INPUT: For the molecule shown here, `COc1cccc2c1C=[N+](c1cccc(I)c1)CC2` , give the reported IC50 at 48 h.
OUTPUT: 4.57 µM

###

test: Cytotoxicity against primary goat fetal fibroblast assessed as decrease in cell viability after 48 hrs by MTT assay; type: toxicity; conditions: goat (Capra hircus), primary goat fetal fibroblasts
Exercise: state measured IC50 at 48 h for each of the compounds provided.
Entry rule: numbers only, all in µM.

INPUT: Any idea what IC50 at 48 h was measured for `COc1cccc2c1C=[N+](c1cccc(I)c1)CC2` ?
OUTPUT: 2.67

INPUT: Which measured IC50 at 48 h value corresponds to `COc1cccc2c1C=[N+](c1ccccc1I)CC2.[Br-]` ?
OUTPUT: 3.51
